# experimental-system: T1, biotinylated CRH (human and mouse, not fully specified; biotinylated, position not stated)
# T1 construct: also called Biotin-CRH; biotin-labeled CRH
# T1 peptide: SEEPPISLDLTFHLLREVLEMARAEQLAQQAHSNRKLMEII
# assay-protocol: Octet BLI, biotinylated CRH on SA sensor
Returns Met if the recorded kon is greater than or equal to 500000 M⁻¹ s⁻¹, and Not met otherwise.

Q: Item PR006143 (antibody, human IgG1, kappa, V domains shown, PTM-removal variant of PR004290) VH: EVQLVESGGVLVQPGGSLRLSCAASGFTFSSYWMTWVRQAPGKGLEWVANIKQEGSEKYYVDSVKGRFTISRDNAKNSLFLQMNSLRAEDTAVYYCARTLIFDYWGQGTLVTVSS VL: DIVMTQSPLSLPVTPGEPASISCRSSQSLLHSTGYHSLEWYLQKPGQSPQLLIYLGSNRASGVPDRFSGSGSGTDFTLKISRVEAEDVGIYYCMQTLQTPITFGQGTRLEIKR with kon of 500000 M⁻¹ s⁻¹ or above?
Ans: Not met

Q: Next up: PR302334-27 (antibody, human IgG1, kappa, V domains shown, Humanized variant of PR302334) VH: EVQLVESGGGLVQPGGSLRLSCAASGFTFSTYAMSWVRQAPGKGLEWVASIRSGGTTYYPDSVKGRFTISRDNSKNSLYLQMNSLRAEDTAVYYCTRGIDWGQGTTVTVSS VL: DIQMTQSSLSASVSLGDRVTITCKASQSVNNDVAWYQQKPGKAPRLLIYYASNRYTGVPSRFSGSGSGTDFTFTISSLQPEDLATYFCQQDYSSWTFGGGTKVEIKR
Ans: Not met

Q: Next up: PR302334-10 (antibody, human IgG1, kappa, V domains shown, Humanized variant of PR302334) VH: EVQLVESGGGLVQPGGSLRLSCAASGFTFSTYAMSWVRQAPGKGLEWVASIRSGGTTYYPDSVKGRFTISRDNSKNTLYLQMNSLRAEDTAVYYCTRGIDWGQGTTVTVSS VL: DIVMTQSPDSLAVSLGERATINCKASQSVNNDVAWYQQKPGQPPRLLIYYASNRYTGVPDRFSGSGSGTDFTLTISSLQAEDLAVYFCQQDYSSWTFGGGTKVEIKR
Ans: Not met

Q: Next up: PR302341 (antibody, human IgG1, kappa, V domains shown, Series 10; mouse variable domains with human IgG1 wildtype Fc) VH: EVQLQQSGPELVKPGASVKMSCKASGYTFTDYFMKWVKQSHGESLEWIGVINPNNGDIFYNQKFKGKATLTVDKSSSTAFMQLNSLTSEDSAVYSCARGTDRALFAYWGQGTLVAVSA VL: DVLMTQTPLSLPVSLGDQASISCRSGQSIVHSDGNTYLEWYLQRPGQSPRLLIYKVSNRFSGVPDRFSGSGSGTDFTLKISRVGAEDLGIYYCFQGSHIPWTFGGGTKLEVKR
Ans: Met
